The reader will find reported ΔTm values listed item by item below.
target: Fibroblast growth factor receptor 2 (Homo sapiens); settings: Compound concentration 20.0 uM
Description: Thermal Shift Assay. Domain: start/stop: T457-E768
Non-standard residues stand in square brackets, D forms with d. Residues, ends and D or L forms follow the SMILES beside them. *: point of attachment. Benzoyl(4-OPh) = O=C(c1ccc(Oc2ccccc2)cc1)*; Benzoyl(4-tBu) = CC(C)(C)c1ccc(C(=O)*)cc1; Lys(Et2) = CCN(CC)CCCC[C@H](N)C(=O)O; d(aIle) = CC[C@H](C)[C@@H](N)C(=O)O; Gly(cPent) = N[C@H](C(=O)O)C1CCCC1; Cbz = O=C(OCc1ccccc1)*; NH(propargyl) = C#CCN*; Boc = CC(C)(C)OC(=O)*; CH2F = FC*
quantity_measured: ΔTm (°C)

* Nc1ncnc2c1ncn2[C@@H]1O[C@H](C(=O)N2CCN(CC(=O)Nc3cccc4c3CNC4=O)CC2)[C@@H](O)[C@H]1O | 0.74
* CS(=O)(=O)N1CCN(C(=O)c2cnc3ccc(Cl)cc3c2-c2ccc(C3(C#N)CC3)cc2)CC1 | 0.34
* COc1ccc(Cc2nc(O)c3c(C)nc([C@@H](CCCc4ccccc4)[C@@H](C)O)n3n2)cc1OC | 0.51
* COc1cc(C)[nH]c(=O)c1CNC(=O)c1c(C)n([C@H](C)C2CCOCC2)c2ccccc12 | 0.42
* COC[C@H](NC(=O)c1ccn(S(C)(=O)=O)c1)C(=O)Nc1nc(-c2cccc(-c3ccn(C)n3)c2)cs1 | 0.09
* O=C(NCCCCc1ccccc1)n1c(=O)oc2cc(-c3ccc(F)cc3)ccc21 | -0.32
* O=c1cc(-c2ccc(O)cc2)oc2c(CN3CCN(Cc4cccs4)CC3)c(O)cc(O)c12 | 1.05
* NCCOCCOCCNC(=O)Cc1ccc(Nc2nc(NCc3ccc(F)cc3)nc(NCC3CCCCC3)n2)cc1 | 0.03
* O=C1C(P(=O)(O)O)CCCN1O (stereo not drawn) | 0.23
* O=C(O)Cc1ccc(Cc2cc(-c3cccc(Cl)c3)nc(C(F)(F)F)c2)cc1 | -0.76
* CC(=O)N1CCC(Nc2cc(C(=O)NC[C@H](O)CN3CCc4ccccc4C3)ncn2)CC1 | 0.28
* Nc1ccccc1NC(=O)c1ccc(CNc2nccc(-c3cccnc3)n2)cc1 | 1.02
* CS(=O)(=O)c1ncn2c(NCc3c(F)ccc4c3CCO4)ncc(-c3ccc(C4CC4)nc3)c12 | -0.76
* CC(C)(C)OC(=O)N1CCC[C@H]1C(=O)N1CCC[C@H]1C=O (Boc-Pro-Pro-aldehyde) | 0.01
* Cc1cccc(Nc2ccncc2S(=O)(=O)NC(=O)NC(C)C)c1 | -0.51
* COc1cc(-c2cn(C)c(=O)c3cnccc23)cc(OC)c1CN(C)CC(=O)NCCOCCOCCNc1cccc2c1C(=O)N(C1CCC(=O)NC1=O)C2=O (stereo not drawn) | 0.52
* CC(=O)N1CCN([C@H]2CCC[C@@H](NC(=O)c3cc4c(F)ccc(C)c4[nH]3)C2)CC1 | -2.8
* CC1=NN(c2ccc(C(=O)O)cc2)C(=O)/C1=C/c1ccc(-c2cc(C)c(C)cc2[N+](=O)[O-])o1 | 0.86
* CCCOc1cc(OCCCCN(C)C)cc(Oc2cc3c(cc2NS(=O)(=O)c2ccc(OC)c(OC)c2)n(C)c(=O)n3C)c1 | 0.62
* CNC(=O)c1cc(Nc2ccnc(Nc3ccc(CCNC(=O)OC(C)(C)C)cc3)n2)n[nH]1 | 0.64
* COCCOc1cc(CC2CCN(CCc3ccc4c(c3)C(=O)CCO4)CC2)ccc1Br | -0.65
* CC(C)(C)OC(=O)NCCCCCN(CCc1ccccc1)C(=O)n1cc(-c2ccc(OC(F)(F)F)cc2)nn1 | -1.05
* COC(=O)CC(NC(=O)C(C)NC(=O)C(NC(=O)C(CC(=O)OC)NC(=O)C(NC(=O)OCc1ccccc1)C(C)C)C(C)C)C(=O)CF (stereo not drawn) (Cbz-VD(OMe)VAD(OMe)-CH2F; configuration not given here) | -0.48
* CNC(=O)c1cc(C(=O)NC2CC2)cn(Cc2ccccc2)c1=O | -1.38
* C[C@@H]1CN(c2ncc(Cl)c(Nc3ccc4c(c3)n(CCC(C)(C)O)c(=O)n4C)n2)C[C@H](C)C1(F)F | -3.16
* CCN(CC)c1ccc(C2=NNC(=O)C[C@H]2C)cc1[N+](=O)[O-] | 0.2
* C/C(=N\NC(=O)c1cccc(S(=O)(=O)N2CCOCC2)c1)c1cc(Cl)ccc1O | -0.21
* NC(=O)C1CCCc2c1[nH]c1ccc(Cl)cc21 (stereo not drawn) | 0.23
* Cn1c(=O)cc(N2CCC[C@@H](N)C2)n(Cc2ccccc2C#N)c1=O | 0.81
* C#CCNC(=O)[C@H](CO)NC(=O)[C@H](CCCCN(CC)CC)NC(=O)[C@H](NC(=O)[C@@H](NC(=O)c1ccc(Oc2ccccc2)cc1)C1CCCC1)[C@@H](C)CC ({Benzoyl(4-OPh)}-[Gly(cPent)][d(aIle)][Lys(Et2)]S-{NH(propargyl)}) | -1.33
* CCN(CC)CCCC[C@H](NC(=O)[C@H](CC(C)C)NC(=O)[C@H](C)NC(=O)[C@H](Cc1ccccc1)NC(=O)c1ccc(C(C)(C)C)cc1)C(=O)N[C@@H](CO)C(=O)OC ({Benzoyl(4-tBu)}-FAL[Lys(Et2)]S-OMe) | 0.43
* O=C(O)C1CCCN(CCC=C(c2ccccc2)c2ccccc2)C1 (stereo not drawn) | 0.41
* C=Cc1cc(C(=O)Nc2ccc(C(=N)N)cc2)c(-c2ccc(C(=O)NCC3CC3)nc2C(=O)O)cc1OC | 0.02
